experiment: pKA of the ionizable group; assay type: physicochemical; conditions: read-out: acidic pKA of the carboxyl group
Readout Label: pKa

Compound Structure String	Value Reported
COc1cccc2c1C(=O)c1c(O)c3c(c(O)c1C2=O)C[C@@](O)(C(=O)CO)C[C@@H]3O[C@H]1C[C@H](NC(=O)OCCSSCc2ccc(C(=O)O)cc2)[C@H](O)[C@H](C)O1	~4.4

----------
assay: Serum stability of prodrug in 20% mouse serum (LCMS, 490 nm); type: in vitro ADME; details: mouse, 20% mouse serum in PBS, pH 7.4, 50 μM, PBS pH 7.4, 20% mouse serum, 37° C.; read-out: t1/2 of interaction with serum

Molecule	half-life at 50 μM
COc1cccc2c1C(=O)c1c(O)c3c(c(O)c1C2=O)C[C@@](O)(C(=O)CO)C[C@@H]3O[C@H]1C[C@H](NC(=O)OCCSSCc2ccc(C(=O)O)cc2)[C@H](O)[C@H](C)O1 [YU241528]	> 6 h
